Origin of the recorded values: a melting point compilation (Tetko et al.; mined from patent text by program, amines drawn as free bases though some values may be those of a salt)

# key: entry, value: melting point

molecule	melting point
O=c1[nH]cnc2ccc(C(F)(F)F)cc12	209 to 211 °C
CC(=O)N1N=C(c2ccc(NC(=O)CCl)cc2)c2cc3c(cc2CC1C)OCO3 (stereo unspecified)	139 to 140 °C
O=C(O)CCc1cn(Cc2ccc(OCc3ccc(-c4ccccc4)cn3)cc2)nc1-c1ccc(F)cc1	162 to 163 °C
CCOC(=S)N[C@@H](C)C(=O)O	74 to 78 °C
CC1CC(=O)NN=C1c1ccc(NC(=O)CCBr)cc1 (stereo unspecified)	215 to 217 °C
Cc1c(C(=O)OCc2ccccc2)sc(NC(=O)C(F)(F)F)c1C(=O)OC(C)(C)C	136 to 138 °C
CN(C)C(=O)Oc1cccc2c1CN(Nc1ccncc1)C2	183 to 185 °C
O=C1CCOc2ccc(/C=C/c3nc4cc(F)ccc4s3)cc21	197 to 199 °C
CCc1cc(Oc2c(Cl)cc(C(F)(F)F)cc2Cl)n[nH]1	118 to 121 °C
Cc1nc(N)sc1-c1ccnc(Nc2ccc3c(c2)OCO3)n1	211 to 213 °C
CCc1cc(C(=O)c2ccccc2Cl)c(-n2c(CNC(=O)c3ccc(Cl)c(Cl)c3)nnc2C2CCCCC2)s1	206 to 208 °C
O=C(O[C@H]1Cc2c(O)cc(O)cc2O[C@@H]1c1ccc(O)c(O)c1)c1cc(O)c(O)c(O)c1	105 to 107 °C
CCOc1ccc2c(c1)C(C)(c1ccccc1Cl)C(=O)N2S(=O)(=O)c1ccc(N)cc1OC (stereo unspecified)	211 °C
COc1ccc(S(=O)(=O)C2(C(=O)O)CCCC2)cc1	89 to 91 °C
FC(F)(F)CN1CCN=C(c2ccccc2)c2cc(Cl)ccc21	164 to 165 °C
COc1ccc2c(Cc3ccco3)nnc(-c3ccccc3)c2c1	128 to 129 °C

---

compound	melting point
CN(c1ccccc1)c1nc(N2CCOCC2)nc(-n2ccnc2)n1	119 to 120 °C
CCCCOc1ccc(NC(=O)N(C)c2cccc(-c3ccc(CCC(=O)O)cc3)c2)cc1	165 °C
COc1ccc2c(c1)c1c3c(c(-c4ccccc4Cl)cc1n2CCC(=O)NS(C)(=O)=O)C(=O)NC3=O	293 to 295 °C
CCN(CC)C1CCN(c2cccc(-c3cnn4c(N)c(-c5cccc(Cl)c5)c(C)nc34)c2)CC1	163 to 168 °C
CNC(=O)n1nc(Oc2ncc(C(F)(F)F)cc2Cl)cc1C(F)(F)F	61 to 63 °C
Cc1ccc(C(=O)c2c(C)c(C(=O)O)c(CC(=O)O)n2C)cc1	229 to 230 °C
O=C(Nc1ccccc1)c1ccc(-c2n[nH]c3c2Cc2ccccc2-3)cc1	186 to 190 °C
COc1ccc(C(=O)c2ccccc2F)c(O)c1C	118 to 120 °C
CCN1C(=O)C(C)(C)C(=O)N(C)c2cc(CN(CCn3ccc4oc(C)cc4c3=O)Cc3cc(C)n(C)n3)ccc21	138 to 139 °C
Cc1ccc(C(=O)Cc2ccccc2)cc1	107 to 111 °C
Fc1ccc(-c2ncn(CCCSc3ccccc3)c2-c2ccncc2)cc1	98 to 99 °C
CCN(CC)CC1CCCCN1C(=O)c1ccc(-c2[nH]nc3c2C(=O)c2c(NC(=O)NN4CCOCC4)cccc2-3)s1 (stereo unspecified)	210 to 212 °C
CCCS(=O)(=O)c1csc2c(=O)n([C@H](C)[C@](O)(Cn3cncn3)c3ccc(F)cc3F)cnc12	115 to 122 °C
CC(C)c1cccc(C(C)C)c1NC(=O)CN1CC2(CCCCC2)N(c2ccccc2)S1(=O)=O	140 to 142 °C
CC(=O)CN(C(=O)Cc1ccccc1)C(C)(C)c1cccc(Cl)c1	98 to 100 °C
CCOC(=O)c1nc2ccc(N)cc2c(O)c1C(=O)OCC	219 to 221 °C
COc1ccc(C=O)c(OC)c1Br	80 °C
Nc1c(NCCSCc2csc(CN3CCCCC3)c2)c(=O)c1=O	236 to 238 °C
CCCCCCCCCCCCc1ccc(NC2CCCc3ccccc32)cc1 (stereo unspecified)	34 °C
CCOC(=O)C(=CNc1ncnc2ccccc12)C(=O)OCC	115 to 117 °C
Cn1nc(C(F)(F)F)c(C(=O)O)c1N	216 to 218 °C
CC(C)[C@H](NC(=O)OC(C)(C)C)C(=O)Nc1c(C(=O)CC(=O)Nc2nccs2)cccc1C(F)(F)F	120 °C
Cn1nccc1[C@H](O)c1ccccc1	81 to 83 °C
CCC1(CC)C(=O)ON(C(=O)c2ccccc2)C1=O	76 to 79 °C
COc1nc(OC)nc(N(C)C(=O)NS(=O)(=O)c2ccccc2S(C)(=O)=O)n1	160 to 162 °C
CCOC(=O)C1=C(C)Nc2nc(N3CCOCC3)nc(N3CCOCC3)c2C1c1ccccc1C(F)(F)F (stereo unspecified)	214 °C
Oc1cccc(OCCCCOc2cccc(O)c2)c1	103 to 106 °C
CC1(C(=O)P(=O)(c2ccccc2)c2ccccc2)CCCCC1	80 °C
CC(=O)Nc1nc2c(Oc3cc(-c4ccc(C(F)(F)F)cc4NC(=O)C4CCCCN4C(C)C)ncn3)cccc2s1 (stereo unspecified)	260 °C
CN(Cc1ccc(Cl)cc1)S(=O)(=O)c1cn(S(=O)(=O)N(C)C)c(C#N)n1	162 to 163 °C
COc1ccc(C(C)N(C)CCCOc2ccc(S(=O)(=O)c3c(C(C)C)n(C)c4ccccc34)cc2)cc1OC (stereo unspecified)	96 °C
